# Test system: SK-OV-3 ovarian
# Assay notes: NCI-60 one-dose screen, 48 h (100 = growth as untreated, 0 = no growth, -100 = all killed)
# Condition: 10 µM unless noted
About 83,000 compounds went through this panel and 20% of them were active in at least one assay; those are over-represented in the sample as a whole.
Answer each item with its documented growth.
Numbers only, in %.

1. C=CCn1c(SCC(=O)Nc2ccc(C(=O)/C=C/c3cc(OC)c(OC)c(OC)c3)cc2)nnc1-c1c[nH]c2ccccc12; 75.3
2. N/C(=N\C(N)=N\c1nc2ccccc2s1)c1ccc2ccccc2c1; 116
3. c1cc(-c2nc3ccc4[nH]ncc4c3c3c2CCCC3)[nH]n1; 9.7
4. COc1cccc(C(=O)Nc2cccc(C#Cc3cccc4[nH]nc(N)c34)c2)c1; 86.7
5. COc1cc2oc(-c3cccc(N)c3)cc(=O)c2c(OC)c1OC; 125
6. O=C(Nc1cccc(C(F)(F)F)c1)c1cc(-c2ccc(F)cc2F)ccc1O; -0.0407

I have 4 compounds here; please give me growth for each one.
1. Cc1occc1-c1nc2s/c(=C/c3ccc(-c4cc(C(F)(F)F)ccc4Cl)o3)c(=O)n2n1
2. CC(C)(C)n1nnnc1C(Nc1cccc2c1OCO2)c1cc2cccc3ccc4cccc1c4c32 (stereo not given)
3. COc1ccc(/C=C(/C)c2ccc3ccc(OC)cc3[o+]2)c(O)c1
4. O=C(NNc1nc2cc(F)ccc2n2c(CN3CCC(O)C3)ccc12)c1cnccn1 (stereo not given)

1: 110; 2: 94.5; 3: 98.6; 4: 8.37

###

# Tested on: SK-MEL-28 melanoma
# Assay notes: NCI-60 one-dose screen, 48 h (100 = growth as untreated, 0 = no growth, -100 = all killed)
# Condition: 10 µM unless noted
About 83,000 compounds went through this panel and 20% of them were active in at least one assay; those are over-represented in the sample as a whole.
Reported property: growth (%)
One number for each entry, in %.

Examples with their reported growth follow.
1. CCOC(=O)c1c(Nc2ccccc2)nn2c(-c3ccc(OC)cc3)ccnc12; 89.9
2. C[C@@H]1C[C@H]2C(=O)O[C@@H](C)C(NC(=O)[C@H](Cc3cc(F)cc(F)c3)NC(=O)Nc3ccc(Cl)cc3F)C(=O)N3CCC[C@H]3C(=O)N3CCCC[C@H]3C(=O)N[C@@H](CO)C(=O)N2C1 (some centres undefined); 43.9
3. CCCCCc1ccc(S(=O)(=O)Nc2cccc(-c3csc(NC(=O)CCCCCN4CCN(CCO)CC4)n3)c2)cc1; 71.1

For the next question, use this compound.
I have this compound here, CC(C)(C)n1cc(-c2ccnc(NCCCNS(=O)(=O)c3cccc(F)c3)n2)c(-c2ccc(Cl)c(O)c2)n1 , and I need its recorded growth.
95.4

###

Answer each item with its documented growth.
# Tested on: HS 578T breast
# Assay notes: NCI-60 one-dose screen, 48 h (100 = growth as untreated, 0 = no growth, -100 = all killed)
# Condition: 10 µM unless noted
This is part of a sample that, as a whole, favours compounds with a hit. Of some 83,000 tested, about 20% had one in any assay.
One number for each entry, in %.

Examples with their reported growth follow.
1. Nc1nc(-c2cccc([N+](=O)[O-])c2)c(N=Nc2ccccc2)s1; 70.4
2. COc1cc(-c2nnc(SCc3ccc(O)c4ncccc34)n2-c2ccccc2)cc(OC)c1OC; 20.3
3. COc1cccc2cc(-c3cc4ccccc4[nH]3)/c(=N\NC(=O)c3ccc(Cl)cc3)oc12; 77

I have this compound here, C=C(C=O)[C@@H]1CC[C@]2(C)[C@H](C(=O)C=C3[C@H]4C[C@](C)(C(=O)OC)CC[C@]4(C)CC[C@]32C)[C@@]1(C)CCC#N , and I need its recorded growth.
-2.47
